target: HEK-EBNA cells expressing a PG EP2 receptor subtype (Homo sapiens, UniProt P43116); construct: expressed in transfected cells; host or cells: HEK-EBNA; assay: cAMP assay, EP2; format: cell-based; conditions: unit inferred; read-out: EP2 data cAMP EC50
Sequence (P43116 whole entry): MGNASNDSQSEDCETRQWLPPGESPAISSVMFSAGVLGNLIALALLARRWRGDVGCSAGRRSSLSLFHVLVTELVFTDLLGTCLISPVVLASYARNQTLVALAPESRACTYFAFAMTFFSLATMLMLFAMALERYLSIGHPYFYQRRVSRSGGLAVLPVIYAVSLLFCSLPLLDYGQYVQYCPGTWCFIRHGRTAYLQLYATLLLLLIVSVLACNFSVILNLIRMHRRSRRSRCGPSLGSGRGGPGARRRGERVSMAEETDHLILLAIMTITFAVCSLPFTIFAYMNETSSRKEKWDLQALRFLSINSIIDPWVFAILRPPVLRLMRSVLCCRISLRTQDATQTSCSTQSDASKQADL
pEC50: −log10 of the molar value.
Label scheme for pEC50: lower than 8 is FALSE, 8 and above is TRUE.

>>> assigned_label("CCCCCC(O)c1ccc(N2C(=O)CC[C@@H]2COCc2ccc(C(=O)O)s2)cc1 (single isomer, unassigned) [drawing 176]")
"TRUE"
>>> assigned_label("CC(C)(C)c1ccc(N2C(=O)CC[C@@H]2COCc2ccc(C(=O)O)s2)cc1")
"FALSE"
>>> assigned_label("CCCCCC(O)c1ccc(N2C(=O)CC[C@@H]2COCc2ccc(C(=O)O)s2)cc1 (single isomer, unassigned) [drawing 148]")
"TRUE"
>>> assigned_label("CCCCCC(O)c1ccc(N2C(=O)CC[C@@H]2CCCc2ccc(C(=O)O)s2)cc1 (single isomer, unassigned) [drawing 178]")
"TRUE"
>>> assigned_label("CCCCCCC(O)c1ccc(N2C(=O)CC[C@@H]2COCc2ccc(C(=O)O)s2)cc1 (stereo partly shown) [drawing 141]")
"TRUE"

----------
target: hIP (Homo sapiens); construct: expressed in transfected cells; host or cells: HEK-293(EBNA); assay: FLIPR calcium signal, hIP; type: cell-based; settings: read-out: Other Receptors EC50 hIP
Sequence (P43119 whole entry): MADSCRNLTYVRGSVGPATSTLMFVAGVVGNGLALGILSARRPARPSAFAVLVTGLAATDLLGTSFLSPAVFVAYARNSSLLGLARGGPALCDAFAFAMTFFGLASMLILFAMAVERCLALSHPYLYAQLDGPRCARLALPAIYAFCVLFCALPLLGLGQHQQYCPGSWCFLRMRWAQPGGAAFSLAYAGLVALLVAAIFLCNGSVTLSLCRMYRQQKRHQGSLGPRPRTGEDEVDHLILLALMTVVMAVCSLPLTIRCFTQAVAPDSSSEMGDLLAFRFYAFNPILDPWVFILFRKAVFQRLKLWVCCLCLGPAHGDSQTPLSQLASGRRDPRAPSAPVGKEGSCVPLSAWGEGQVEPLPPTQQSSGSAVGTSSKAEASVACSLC
pEC50: −log10 of the molar value.
reported-metric: pEC50

>>> observed_value("CCCCCCC(O)c1ccc(N2C(=O)CC[C@@H]2CCCc2ccc(C(=O)O)s2)cc1 (single isomer, unassigned) [drawing 156]")
"< 5.00"
>>> observed_value("CCCCCCC(O)c1ccc(N2C(=O)CC[C@@H]2CCCc2ccc(C(=O)O)s2)cc1 (single isomer, unassigned) [drawing 184]")
"< 5.00"

----------
target: hEP2/Gqs5 (Homo sapiens); construct: expressed in transfected cells; host or cells: HEK-293(EBNA); assay: FLIPR calcium signal, hEP2; type: cell-based; details: FLIPR Ca2+ signal, HEK-293(EBNA); read-out: FUNCTIONAL EC50 HEP2
Sequence (P43116 whole entry): as the sequence (P43116 whole entry) above
reported-metric: EC50 (µM)

>>> observed_value("O=C(O)COCC#CCC1[C@H](Cl)C[C@@H](O)[C@@H]1c1ccc(C(O)C2CCCCC2)cc1 (some centres unmarked)")
1.55
>>> observed_value("CCCC1(C(O)c2cccc([C@H]3[C@H](O)CC(=O)[C@@H]3C/C=C\\CCCC(=O)O)c2)CCC1 (some centres unmarked)")
5.29
>>> observed_value("COC(=O)CCCCCC[C@@H]1[C@@H](c2ccc(C(O)C(C)(C)C)cc2)[C@H](O)C[C@H]1Cl (some centres unmarked) [drawing 133]")
6.58
>>> observed_value("O=C(O)CCCCCC[C@@H]1[C@@H](c2ccc(C3(O)CCC3)cc2)[C@H](O)C[C@H]1Cl")
0.743
>>> observed_value("CCCC1(C(O)c2ccc([C@@H]3[C@@H](C/C=C\\CCCC(=O)O)[C@H](Cl)C[C@H]3O)cc2)CCC1 (some centres unmarked)")
2.27
>>> observed_value("O=C(O)CCCCCC[C@@H]1[C@@H](c2ccc(C(O)C3CCCCC3)cc2)[C@H](O)C[C@H]1Cl (some centres unmarked)")
2.81
>>> observed_value("O=C(O)CCC/C=C\\C[C@H]1C(=O)C[C@@H](O)[C@@H]1c1ccc2c(c1)CCC2O (some centres unmarked)")
0.405
>>> observed_value("CC(C)(C)C(O)c1ccc([C@@H]2[C@@H](C/C=C\\CCCC(=O)O)[C@H](Cl)C[C@H]2O)cc1 (some centres unmarked)")
0.779
>>> observed_value("CCCC1(C(O)c2cccc([C@H]3[C@H](O)CC(=O)[C@@H]3CCCCCCC(=O)O)c2)CCC1 (some centres unmarked)")
5.26
>>> observed_value("O=C(O)CCC/C=C\\C[C@@H]1[C@@H](c2ccc(C(O)C3CCCCC3)cc2)[C@H](O)C[C@H]1Cl (some centres unmarked) [drawing 77]")
0.392
>>> observed_value("CC(C)(C)c1ccc([C@@H]2[C@@H](C/C=C\\CCCC(=O)O)[C@H](Cl)C[C@H]2O)cc1")
0.118
>>> observed_value("O=C(O)CCCCCC[C@@H]1[C@@H](c2ccc(CC3CCCCC3)cc2)[C@H](O)C[C@H]1Cl")
3.45
>>> observed_value("COC(=O)CCCCCC[C@H]1C(=O)C[C@@H](O)[C@@H]1c1ccc(C(C)(C)C)cc1")
0.936
>>> observed_value("COC(=O)CCCCCC[C@@H]1[C@@H](c2ccc(C(O)C(C)(C)C)cc2)[C@H](O)C[C@H]1Cl (some centres unmarked) [drawing 131]")
5
>>> observed_value("CCCC1(C(O)c2cccc([C@@H]3[C@@H](Cc4cccc(OCC(=O)O)c4)[C@H](Cl)C[C@H]3O)c2)CCC1 (some centres unmarked)")
0.266
>>> observed_value("CCCC1(C(O)c2ccc([C@H]3[C@H](O)CC(=O)[C@@H]3CCCCCCC(=O)O)cc2)CCC1 (some centres unmarked)")
0.635
>>> observed_value("CC(C)(C)c1ccc([C@H]2[C@H](O)CC(=O)[C@@H]2C/C=C\\CCCC(=O)O)cc1")
1.71
>>> observed_value("O=C(O)COC/C=C\\C[C@@H]1[C@@H](c2ccc(C(O)C3CCCCC3)cc2)[C@H](O)C[C@H]1Cl (some centres unmarked)")
3.84
>>> observed_value("O=C(O)CCCCCC[C@H]1C(=O)C[C@@H](O)[C@@H]1c1ccc(C(O)C2CCCCC2)cc1 (some centres unmarked)")
0.45
